The values you see were collected from patent US20210380548A1.

target: QKF-KAT6B (Homo sapiens); construct: purchased SignalChem K315-381BG; assay: Revised Acetyltransferase Biochemical Assay, KAT6B; conditions: 8 nM KAT6B, 1 μM AcCoA, 100 nM histone H3.1, 90 min
Sequence (Q8WYB5 whole entry): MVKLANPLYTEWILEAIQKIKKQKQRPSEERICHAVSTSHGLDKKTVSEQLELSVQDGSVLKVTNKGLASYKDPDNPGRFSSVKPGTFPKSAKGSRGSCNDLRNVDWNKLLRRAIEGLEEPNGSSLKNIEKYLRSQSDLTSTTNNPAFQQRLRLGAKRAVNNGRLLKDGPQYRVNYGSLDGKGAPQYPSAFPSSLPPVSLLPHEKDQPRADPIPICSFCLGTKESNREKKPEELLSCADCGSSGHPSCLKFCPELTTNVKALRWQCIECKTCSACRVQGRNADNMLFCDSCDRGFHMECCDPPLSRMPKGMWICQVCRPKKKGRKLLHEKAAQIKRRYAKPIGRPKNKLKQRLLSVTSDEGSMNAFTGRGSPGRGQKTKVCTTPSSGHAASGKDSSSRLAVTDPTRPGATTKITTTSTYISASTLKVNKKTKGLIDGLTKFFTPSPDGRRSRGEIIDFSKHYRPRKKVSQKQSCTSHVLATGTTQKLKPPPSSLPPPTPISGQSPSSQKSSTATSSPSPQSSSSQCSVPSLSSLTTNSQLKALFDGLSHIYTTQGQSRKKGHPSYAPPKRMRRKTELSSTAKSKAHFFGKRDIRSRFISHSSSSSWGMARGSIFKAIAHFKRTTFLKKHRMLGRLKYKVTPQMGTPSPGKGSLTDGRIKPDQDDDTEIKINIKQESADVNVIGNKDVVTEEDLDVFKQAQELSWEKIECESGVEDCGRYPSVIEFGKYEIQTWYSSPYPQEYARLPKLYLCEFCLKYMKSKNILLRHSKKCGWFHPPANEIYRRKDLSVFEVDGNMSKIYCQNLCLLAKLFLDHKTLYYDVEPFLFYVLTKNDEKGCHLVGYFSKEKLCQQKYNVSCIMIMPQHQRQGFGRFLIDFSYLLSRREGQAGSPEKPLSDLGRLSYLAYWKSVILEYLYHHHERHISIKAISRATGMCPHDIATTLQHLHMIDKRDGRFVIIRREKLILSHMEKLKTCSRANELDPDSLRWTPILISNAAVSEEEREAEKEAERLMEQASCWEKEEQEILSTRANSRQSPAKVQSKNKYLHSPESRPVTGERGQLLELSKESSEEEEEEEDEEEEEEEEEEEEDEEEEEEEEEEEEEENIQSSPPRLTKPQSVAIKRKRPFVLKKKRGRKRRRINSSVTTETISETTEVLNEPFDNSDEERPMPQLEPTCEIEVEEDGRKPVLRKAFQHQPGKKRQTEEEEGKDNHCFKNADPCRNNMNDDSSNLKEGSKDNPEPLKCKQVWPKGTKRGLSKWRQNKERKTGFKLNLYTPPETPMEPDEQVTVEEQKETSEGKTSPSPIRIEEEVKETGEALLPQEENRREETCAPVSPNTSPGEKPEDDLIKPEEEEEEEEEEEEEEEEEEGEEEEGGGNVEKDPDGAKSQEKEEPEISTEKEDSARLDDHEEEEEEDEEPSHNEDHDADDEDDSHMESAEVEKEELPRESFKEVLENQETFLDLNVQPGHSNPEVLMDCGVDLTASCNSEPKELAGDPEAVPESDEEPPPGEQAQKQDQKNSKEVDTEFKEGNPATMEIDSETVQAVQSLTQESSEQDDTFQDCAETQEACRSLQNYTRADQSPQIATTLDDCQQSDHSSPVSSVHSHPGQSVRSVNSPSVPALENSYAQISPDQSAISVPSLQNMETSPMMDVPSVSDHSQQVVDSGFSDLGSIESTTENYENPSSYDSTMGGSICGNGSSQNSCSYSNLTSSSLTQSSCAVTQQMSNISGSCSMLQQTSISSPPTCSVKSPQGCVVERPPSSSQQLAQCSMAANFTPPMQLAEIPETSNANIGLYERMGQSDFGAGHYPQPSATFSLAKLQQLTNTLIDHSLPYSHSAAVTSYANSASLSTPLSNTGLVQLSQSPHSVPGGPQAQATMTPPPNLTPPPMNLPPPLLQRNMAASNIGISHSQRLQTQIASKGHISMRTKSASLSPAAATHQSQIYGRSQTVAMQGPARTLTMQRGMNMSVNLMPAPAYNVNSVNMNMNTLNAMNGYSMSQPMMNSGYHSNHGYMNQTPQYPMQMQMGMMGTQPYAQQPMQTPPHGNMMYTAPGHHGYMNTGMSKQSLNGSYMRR
pIC50: −log10 of the molar value.
Where pIC50 equals or exceeds 7, the correct label is T; where it does not, the label is F.

# compound, class_assignment
measured = [
    ("O=C(NCC(c1ccccc1)c1ncco1)C1=Nc2ccccc2S(=O)(=O)N1 (stereo not shown) [Example 46]", "F"),
    ("COc1cc(C)cc(C(CNC(=O)C2=Nc3ccc(Cl)cc3S(=O)(=O)N2)c2ncco2)c1 (stereo not shown) [Example 159]", "F"),
    ("O=C(NCC(c1ccccc1)c1ncco1)C1=Nc2ccc(I)cc2S(=O)(=O)N1 (single isomer, unassigned) [Example 146]", "T"),
    ("O=C(NCC(c1ccccc1)c1ncco1)C1=Nc2ccc(-c3c[nH]nn3)cc2S(=O)(=O)N1 (stereo not shown) [Example 213]", "T"),
    ("O=C(NCC(c1ccccc1)c1ncco1)C1=Nc2ccc(F)cc2S(=O)(=O)N1 (single isomer, unassigned) [Example 144]", "F"),
    ("CN(CC(c1ccccc1)c1ncco1)C(=O)C1=Nc2ccc(I)cc2S(=O)(=O)N1 (stereo not shown) [Example 203]", "F"),
    ("O=C(NCC(c1ccccc1)c1ncco1)C1=Nc2ccc(O)cc2S(=O)(=O)N1 (stereo not shown) [Example 8]", "F"),
    ("O=C(NCC1(c2ccccn2)CCCC1)C1=Nc2ccc(Cl)cc2S(=O)(=O)N1 [Example 198]", "F"),
    ("O=C(NCC(CO)C1CCCCC1)C1=Nc2ccc(Cl)cc2S(=O)(=O)N1 (stereo not shown) [Example 199]", "F"),
    ("COCc1ccccc1CCNC(=O)C1=Nc2ccc(I)cc2S(=O)(=O)N1 [Example 14]", "T"),
    ("O=C(NCCc1ccccc1-c1n[nH]c(=O)o1)C1=Nc2ccc(I)cc2S(=O)(=O)N1 [Example 172]", "F"),
    ("Cn1cc(-c2ccc3c(c2)S(=O)(=O)NC(C(=O)NCC(c2ccccc2)c2ncco2)=N3)cn1 (stereo not shown) [Example 25]", "F"),
    ("O=C(NCCC1CCCCC1)C1=Nc2ccc(-c3c[nH]nn3)cc2S(=O)(=O)N1 [Example 201]", "F"),
]
